Assay: Quantitative High-Throughput drug screen in 47 multiple myeloma cell lines against the NCATS MIPE library collection: KMS12PE_JCRB cell viability assay (AID 1918972); also: nearly all actives have a fitted effect of over 30% in size
Conditions: KMS12PE myeloma viability, CellTiter-Glo ATP, 48 h; series mostly up to 45.8 µM
Records with an inconclusive call do not appear. The source made the active and inactive calls. Calls follow the shape of the dose curve; as a rule, active = well fitted cell-killing curve with a large enough effect; inconclusive = small, poorly fitted or top-dose-only effect, or effect the other way; inactive = no such curve, though single readings can be large or run the other way.
Choose the fitting class; nothing outside active, inactive is accepted.

query: Could you please tell me the result logged for CN[C@@H]1CN(c2ccc3c(=O)c(C(=O)O)cn(-c4nccs4)c3n2)C[C@@H]1OC in this assay?
result: inactive

query: How did this test come out for CO[C@H]1/C=C\O[C@@]2(C)Oc3c(C)c(O)c4c(O)c(c5c(nc6cc(C)ccn65)c4c3C2=O)NC(=O)C(C)=CC=C[C@H](C)[C@H](O)[C@@H](C)[C@@H](O)[C@@H](C)[C@H](OC(C)=O)[C@H]1C ?
result: active

query: Please state the recorded outcome for this compound: CCN1C[C@H](C)n2c(c(O)c3c(=O)n(Cc4ccc(F)c(Cl)c4)nc(C(=O)NC)c32)C1=O
result: inactive

query: Hey, what did the test say about NC(N)=Nc1nc(CSCCC(N)=NS(N)(=O)=O)cs1 ?
result: inactive

query: Given COc1cc(F)c(C(C)C)cc1-c1ccc(C(F)(F)F)cc1CN1C(=O)O[C@H](c2cc(C(F)(F)F)cc(C(F)(F)F)c2)[C@@H]1C , state the outcome it received in this test.
result: inactive

query: Status in this test for CCC(=C(CC)c1ccc(O)cc1)c1ccc(O)cc1 ?
result: active

query: Just curious, what result did C=C1c2cccc(O)c2C(O)=C2C(=O)[C@@]3(O)C(O)=C(C(N)=O)C(=O)[C@@H](N(C)C)[C@@H]3[C@@H](O)[C@H]12 get here?
result: inactive

query: In this assay, the call recorded for CC[C@]1(O)C[C@H]2CN(CCC3=c4ccccc4=N[C]3[C@@](C(=O)OC)(c3cc4c(cc3OC)N(C)[C@H]3[C@@](O)(C(N)=O)[C@H](O)[C@]5(CC)C=CCN6CC[C@]43[C@@H]65)C2)C1 was what?
result: active

query: Could you please tell me the result logged for CN(C(Cc1ccc(OS(=O)(=O)c2cccc3cnccc23)cc1)C(=O)N1CCN(c2ccccc2)CC1)S(=O)(=O)c1cccc2cnccc12 (centres undefined) in this assay?
result: active

query: Recorded call for CCCCCCOC(=O)N=C(N)c1ccc(NCc2nc3cc(C(=O)N(CCC(=O)OCC)c4ccccn4)ccc3n2C)cc1 ?
result: active

query: Test call, this compound: COc1c(C)c2c(c(O)c1CC=C(C)CCC(=O)O)C(=O)OC2
result: active

query: What classification did CC(=O)OCC(=O)[C@@]12OC(C)(C)O[C@H]1C[C@H]1[C@@H]3C[C@H](F)C4=CC(=O)C=C[C@]4(C)[C@@]3(F)[C@@H](O)C[C@@]12C end up with in this test?
result: inactive

query: Answer briefly: the call reported for CC(C)(OCc1nn(Cc2ccccc2)c2ccccc12)C(=O)O in this assay.
result: inactive

query: Record request — test call for CCC(=O)OCC(=O)[C@@]1(OC(=O)CC)[C@@H](C)C[C@@H]2[C@H]3CCC4=CC(=O)C=C[C@]4(C)[C@@]3(F)[C@@H](O)C[C@@]21C
result: active

query: Dear colleague, could you share the recorded outcome for CN(C)CCN(C)C(=O)c1ccc(NC(=O)Nc2ccc(-c3nc(N4CCOCC4)c4ccn(CC(F)(F)F)c4n3)cc2)cc1 when you have a moment?
result: active

query: What classification did Nc1ccn([C@@H]2O[C@H](CO)[C@@H](O)[C@H]2O)c(=O)n1 end up with in this test?
result: inactive

query: Look up the recorded call for CC(C)(CO)[C@@H](O)C(=O)NCCC(=O)O in this test.
result: inactive

query: GET /call?item= CC1(C)C(N(O)C(=O)Nc2ccc(Cl)cc2)N(c2ccc(Cl)cc2)C(=O)N1CC(=O)NN=CC=Cc1ccc([N+](=O)[O-])o1 (centres undefined) returns the recorded outcome of this test.
result: inactive

query: Can you look up the reported call for NC1(C(=O)N[C@@H](CCO)c2ccc(Cl)cc2)CCN(c2ncnc3[nH]ccc23)CC1 for me?
result: active

query: Give the logged outcome of this assay for the following compound: CN[C@H]1[C@@H](O[C@@H]2[C@H](O[C@@H]3[C@@H](O)[C@@H](O)[C@@H](N=C(N)N)[C@@H](O)[C@@H]3N=C(N)N)O[C@H](C)[C@@]2(O)C=O)O[C@@H](CO)[C@@H](O)[C@H]1O
result: inactive

query: Outcome logged for COc1nccc(-c2c(-c3ccc(F)cc3)ncn2C2CCNCC2)n1 in this assay:
result: inactive

query: Hey, what did the test say about Clc1ccc(COC(Cn2ccnc2)c2ccc(Cl)cc2Cl)c(Cl)c1 (centres undefined) ?
result: active

query: Returns: the outcome recorded for NC(=O)c1nnn(Cc2cc(Cl)c(C(=O)c3ccc(Cl)cc3)c(Cl)c2)c1N in this assay.
result: active

query: Which outcome was entered for the compound Fc1ccc(CNc2ncnc3ccc(F)cc23)cc1 in this test?
result: active
